assay: protease stability score; higher = more stable; yeast display proteolysis, trypsin and chymotrypsin;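 also: relative to predicted unfolded state with 0 unfolded-like and 1 meaning tenfold more protease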
Each record here notes measured protease stability score.
Answer with a number only.

DEDEKLSREAFRKLLEDRETGDEHMLTRNADPRARIEVNGVELHGREHAEKFWRHYHEKFKNIRINIEHHEIQGEKVIIRGILHVNGVNLTVEIHALKINGKWLNEEFSVK	0.129
DHEERIISEQLKIELESTATGDESTLEELVDPTTKININGKHLHGRESILKLLVEYARRADHIEIRPEHVEVYGNKLIIHGEIRIEVGDKRHSTKVLLILRKVNGRWRLTEEKWD	1.65
DTEKYLYDFALRLHIHAHETGNFDQLIKNLDPHYRIDINGQIFHGREWVEREYKRAGIDKFELQHFEVKHEHVQGDFLIMDGKLEGNFNGVRINTRVEIYHEKFDGQWKIREVHHR	0.185
SEEEEEARKAFDDFYKSLETGDEEDLSKMIDPHVRIDINGREVHGREYAQTFWRDLIEKVKNLTLHLRDFRVIDGRLHSKMEIHQGEFHTEVNIHSKKINGRWLVQTFEFR	1.84
DEEEKTFEQIVRHLIDDLVTGDWEKLRDYFDPHVRVEIGDKRIVGRETLVDELSHWRVKHVRVELHDYRVINGRIEVHGSVDFRGNIDGRELRHSYETKIIFDKINGRWTLQSHHVL	1.21
DEEEELAIHFWRLFLHLIITGDWERLTELMDPNVRIDINGKEIHGRELASEHLRKLMEHARFRDHHLEDVKIYDGVVEMHGRIDGRFDGKDVDTRMIVYTVKVNGKWLLKRVVHL	2.32

In: Supply measured protease stability score of "DDKDEHSYRVAEDVVEAWLTGDWRWLMDMFDPHVRMDIDIDGVDIHLHGRHELARYILEEHQKYKNITVHIEHIRVQGDFIEINTSVRIDGQRHDRRLIIRIINGKIEEHQIHVR" in your reply.
Out: 1.01

In: Please give measured protease stability score of the following entry: "SEMEEEVRRAMKSFIKDLETGNEKSNHENVDPHARLLINGQEFHGMEHVSRWINKAGIDHFEIDEFRIIGNKIRIDGTITFNGQQHKVRIDVVKVDGRWLVKSLEII"
Out: 1.29

In: Identify measured protease stability score associated with "HESHEFVKEAFRLWVESLRTGDEKTLSRYADPHVRVTYDGREFHGRDWYVKLMDELRVNDVKLDDVNVQGEKIDIEGTIDGQVNGQDREIKVRLHAEKINGRWVNKKIQID"
Out: 1.11

In: Provide one value: measured protease stability score of "SEEEDTMRHLLHLLIEWELTGDWKNWQKLADPRTRIEINGRELHGRETYAEFIREVLEQFKNLVIHDFIMHDVKVFDGRVIVDGYVDTEINGVRTHIRVEFILIVVNGKLRRVSRIVR"
Out: 1.57

In: Specify protease stability score for "DDEKEEVERLARLFIHYVLTGDEDTLREMVDPNVRIRIGDKRNHGMKFLLHLITVWLERVDHVRIEVDESRLVNGQLNMTGTLHLHQGDKTQELRTRSHLVIVNGVMKEITFEYD" and stop.
Out: 2.06

---

test: protease stability score; higher = more stable; yeast display proteolysis, trypsin and chymotrypsin;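 also: relative to predicted unfolded state with 0 unfolded-like and 1 meaning tenfold more protease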
If the reported protease stability score equals or exceeds 1, assign Y. If not, assign N.

Check out these entries, answers already filled in.
DKEFEDVIRMAEHEMKLMETGDWKTHEHLADPNYRVDINGREHIGWDHFVRWLFHMRIHRIEIKEVRVQGEKATLRLKVDGEQGDKRFKTDIEFSLLIVDGRIKEIHIILH	Y
DEEKKDLDILIEILFEIIYTGNEEKFRELVDPNAKSRVGDKKTHGREDATKLLSKKWRHMRIRTMDVHDFRHYDGQIDVDSRLDGDINGVELLLEVRLILVKYDGRWLIKNIHIQ	Y
DDWEEEVHKFSRLFIKSVETGDEDTLHKFADPNVMLHQGDKEYHGREMFVRWSNELLRHLGVSKVRARMHDDKAYNGVVHLDLENRFNGRTVRIEVRIEKINGKWLMTEVRIE	N
SEDDRENHRFMEQFLHDWETGDEDSLRKLADPDVKVRINGVDLHGWSFFEDYLRRVDHIDDFKIDHVEIQGDKIKIHGQQHGRIDGRRDTYKVQNFFIKIDGKWRLKMVINR	Y
SEQEELSKKFFHDLLHAMKTGDESSLYSFLDPNMKHEFDGKVIHGMEEVARIIVEKLERADHHDIRIHDEKMQGDYLVMDVRIIINIDGKEVIKDIKLTWLKIDGRWHVTSVVLH	Y

# input for lookup
In: Is protease stability score at least 1? Consider "DDELKTTHKFAKEFVDQLTTGDWEWHDKLFDPDARMSMIIDGREVRLHGREELTRWHLKVFEDLGIERVHSRYEHMHVVDGQIHFRGVLEFNGQRREFHIDMRIVDGRMHEFHEIHN"
Out: N
